Origin of the recorded values: paper PMC8927147

TARGET OR TEST SYSTEM: T1, H3K14bz peptide
T1 chain: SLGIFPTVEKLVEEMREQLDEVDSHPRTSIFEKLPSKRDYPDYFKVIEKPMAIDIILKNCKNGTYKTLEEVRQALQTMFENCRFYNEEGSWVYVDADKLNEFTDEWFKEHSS
EXPERIMENT NOTES: ITC
CONDITION PARAMETERS: chain shown with the change
PARAMETER: Kd (µM)
Give bare numbers, in µM.

Query: Note Kd for the binder shown: TARKSTGGKAPRKQLASY [Sth1BD, P32597 A1329C]
Result: 187
